Reported GI50 values for a set of compounds
tested on: HCT-116 colon; assay: NCI tumour cell line growth inhibition, 48 h

Take a look at these entries with their results.
COMPOUND: CCC(C(=O)[O-])C(=O)[O-].CCC(C(=O)[O-])C(=O)[O-].N.N.NCCCCCN.[Pt+4].[Pt+4]
GI50: > 100000 nM

COMPOUND: O=C1C(Cl)=C(Nc2ccc3cn[nH]c3c2)C(=O)c2ccccc21
GI50: 1430 nM

COMPOUND: COc1cc(NN=C(c2ccc(O)cc2)c2ccc(O)cc2)c([N+](=O)[O-])cc1[N+](=O)[O-]
GI50: 9330 nM

COMPOUND: Nc1nc2c(c3ncccc13)C(c1cccc(Cl)c1)Cc1ncccc1-2 (stereo not given)
GI50: 1360 nM

With those in mind, consider the next compound.
Q: # query: GI50 of entry `CN(C)CCNC(=O)c1cccc2cc3ccccc3nc12`
Result: 531 nM
